Tested on: serum 1a (individual 1, early serum)
Assay type: binding, human
Below, each of the sequences is paired with its reported Binding of serum 1a to linear peptides of Orf14 of SARS-CoV TOR2 value.
measurement-kind: Binding of serum 1a to linear peptides of Orf14 of SARS-CoV TOR2

    ordered_residues  obs_value
 0   HVVAVIQEIQLLAAV        0.5
 1   ILLLEWLAEVVKLPS        0.5
 2   QEIQLLAAVGEILLL        0.5
 3   VAVIQEIQLLAAVGE        0.5
 4   KASTQREAEAAVKPL        0.3
 5   QKASTQREAEAAVKP        0.4
 6   KEQHCQKASTQREAE        0.4
 7   PLLAPHHVVAVIQEI        0.5
 8   LLLEWLAEVVKLPSR        0.5
 9   STQREAEAAVKPLLA        0.5
10   EIQLLAAVGEILLLE        0.6
11   CYNFLKEQHCQKAST        0.5
12   ASTQREAEAAVKPLL        0.4
13   IQEIQLLAAVGEILL        0.5
14   VVAVIQEIQLLAAVG        0.8
15   LKEQHCQKASTQREA        0.3
16   EWLAEVVKLPSRYCC        0.8
17   CQKASTQREAEAAVK        0.3
18   APHHVVAVIQEIQLL        0.5
19   PHHVVAVIQEIQLLA        0.4
20   HHVVAVIQEIQLLAA        0.4

====

Tested on: control serum Blood-bank (commercial negative donor pooled serum)
Format: binding, human
Use class 1 when the recorded Control Serum Blood-Bank Looped peptides is no lower than 0.7; use class 0 when it is lower.

>>> df
    ordered_residues    class
 0   IFWFSLEIQDLEEPC  class 1
 1   HVVAVIQEIQLLAAV  class 0
 2   IDFYLCFLAFLLFLV  class 0
 3   KPLLAPHHVVAVIQE  class 0
 4   TLIDFYLCFLAFLLF  class 0
 5   LAFLLFLVLIMLIIF  class 1
 6   AVIQEIQLLAAVGEI  class 0
 7   LEWLAEVVKLPSRYC  class 1
 8   APHHVVAVIQEIQLL  class 0
 9   LPPCYNFLKEQHCQK  class 1
10   QHCQKASTQREAEAA  class 1
11   YLCFLAFLLFLVLIM  class 0
12   LLAAVGEILLLEWLA  class 0
13   CFLAFLLFLVLIMLI  class 1
14   FWFSLEIQDLEEPCT  class 1
15   HCQKASTQREAEAAV  class 1
16   PPCYNFLKEQHCQKA  class 1
17   ASTQREAEAAVKPLL  class 1
18   EAAVKPLLAPHHVVA  class 1
19   VIQEIQLLAAVGEIL  class 0
20   KASTQREAEAAVKPL  class 0
21   IMLIIFWFSLEIQDL  class 0
22   QLLAAVGEILLLEWL  class 0
23   STQREAEAAVKPLLA  class 1
24   FSLEIQDLEEPCTKV  class 1
